# Tested on: MDA-MB-231 breast
# experimental details: NCI tumour cell line growth inhibition, 48 h
Provide the reported TGI of each item.

Consider the reported TGI for these compounds:
*Q* # get_value(readout='TGI', item= NCCCCN(CCCN)Cc1ccccc1 )
*A* > 100 µM

*Q* Can you check COc1ccc2c(c1)CC[C@@H]1[C@@H]2CC[C@]2(C)C(=O)/C(=C/c3ccncc3)C[C@@H]12 next?
*A* > 100 µM

*Q* Now this one: CCCN(CCC)c1cc2c(cc1F)c(=O)c(C(=O)O)cn2-c1ccc(N2CCN(C)CC2)cn1
*A* 27.1 µM

*Q* Try C/C=C/C(C#N)(Cc1ccccc1)OP1(=O)OC(c2ccccc2)C(C)N1C (stereo unspecified) next.
*A* > 100 µM

*Q* Could you do the same for C[C@H]1CCCCC[C@@H]2CC(=O)CC2C(=O)CCC(=O)O1 (stereo partly specified) , please?
*A* > 100 µM

*Q* Input N#Cc1cccc(/C=C(/C(=O)c2ccccc2)c2ccccc2)c1
*A* > 100 µM

*Q* Now the same for COc1ccccc1N1C(=O)CS(=O)(=O)C1c1cccc(Oc2ccccc2)c1 (stereo unspecified)
*A* 30.7 µM

*Q* Query CCOC(=O)NC next
*A* > 100 µM

*Q* Next: O=C1c2ccccc2C(=O)c2c1ccc(C(=O)O)c2-c1ccc2ccccc2c1
*A* 73.9 µM

*Q* Also, O=C(O)c1ccc(NCc2nc3cc4ccccc4cc3[nH]2)cc1 please.
*A* > 100 µM

Others:
*Q* Quick one: TGI for CC(C)C1SCc2nc3ccccc3n21 (stereo unspecified) ?
*A* 78.2 µM

---

# Tested on: COLO 205 colon
# experimental details: NCI tumour cell line growth inhibition, 48 h
property label: TGI (µM)
One number for each entry, in µM.

For every listed record, write down its TGI.
1. O=C1c2ccccc2C(=O)c2c1ccc(C(=O)O)c2-c1ccc2ccccc2c1
2. CCN(CC)CCCOc1cc(O)c2c(=O)cc(-c3ccccc3)oc2c1
3. COc1cc2ccnc3c2c(c1OC)-c1ccc(=O)ccc1-3
4. COc1cc2nc(N3CCCC3)nc(Nc3ccccc3)c2cc1OC
5. Cc1nc(-c2nc(C)c(C(=O)NN(C)C)s2)sc1C(=O)NN(C)C
6. COc1ccc(/C=C/C(=O)c2ccc3cc(OC)c(OC)cc3c2)cc1OC

*A*
1. 30.1
2. 15.5
3. 97.8
4. 3.96
5. 53.9
6. 13.2

---

# Tested on: COLO 205 colon
# experimental details: NCI tumour cell line growth inhibition, 48 h
I'd be grateful if you could share measured TGI for these entries.

Solved entries:
*Q* What reported TGI corresponds to Cn1c(=O)c2c(nc(N)n2C2OC(CO)C(O)C2O)n(C)c1=O (stereo not drawn) on COLO 205 colon?
*A* > 100 µM

*Q* Also CN(C)c1nc(=NCc2cccs2)ss1 , if possible.
*A* > 10 µM

*Q* Now this one: COc1cc(C(=O)C/C(CCC(=O)Nc2ccc(Cl)cc2Cl)=N/NC(=O)C(N)=O)ccc1O
*A* > 100 µM

*Q* Record: COc1ccc2[nH]c(=O)c(/C=C/C(=O)/C=C/c3ccc(O)c(OC)c3)cc2c1
*A* 3.81 µM

*Q* Query Cc1c(C(=O)/C=C/c2ccccc2Cl)[n+](=O)c2ccccc2n1[O-] next
*A* 28.8 µM

*Q* Now the compound COc1ccc(OC)c(-c2nc3ccccc3c(=O)[nH]2)c1
*A* > 100 µM

*Q* Next compound up: NC(CSc1nc2ccccn2c1[N+](=O)[O-])C(=O)O (stereo not drawn)
*A* > 100 µM

*Q* Queued: S=C(N/N=C(/c1ccccc1)c1ccccn1)Nc1ccc(Cl)cc1
*A* 18.2 µM

*Q* What do you have for Cc1ccccc1-c1c(N)nc(N)nc1C(=O)Nc1nccs1 ?
*A* > 100 µM

*Q* Next: OCCNc1ncnc2c1ncn2C1OC(CO)C(O)C1O (stereo not drawn)
*A* > 100 µM

Field: TGI. Fill in for each record below.
1. O=C1OC(C2=CC(=O)c3ccccc3C2=O)C(Cl)=C1Cl (stereo not drawn)
2. COc1cc(/C=C/c2ccc(OC(C)=O)cc2)cc(OC)c1OC
3. Nc1ccc2cc3[nH]c4cc(N)ccc4c3nc2c1

*A*
["> 100 µM", "67.2 µM", "1.27 µM"]

---

# System: HCC-2998 colon
# experimental details: NCI tumour cell line growth inhibition, 48 h; in the data active = GI50 below about 0.43 µM; inactive = the rest
Thanks in advance; please answer with one of these: true (1) (active), false (0) (inactive)

*Q* Give the logged outcome of this assay for the following compound: N#CSCc1c(Cl)cccc1Cl
*A* false (0)

Others:
*Q* Status in this test for COc1ccc(-c2cc(-c3cn[nH]c3-c3ccccn3)ccn2)cc1 ?
*A* false (0)

*Q* Proceed to CNNC(=N\S(=O)(=O)c1cc(C(=O)Nc2ccc(Cl)cc2)c(Cl)cc1SCc1ccccc1)/N=C/c1ccc([N+](=O)[O-])s1
*A* false (0)

*Q* Check COc1cc(Cn2ccc3c2-c2oncc2CC3)cc(OC)c1 too.
*A* false (0)

*Q* Note, next up: Cc1ccc2c(Nc3cccc(Cl)c3F)ncc(NC(=O)c3csc4c(N)ncnc34)c2c1
*A* true (1)

---

# System: SNB-75 CNS
# experimental details: NCI tumour cell line growth inhibition, 48 h
property label: TGI

*Q* Fill in the blank: the reported TGI of Cc1cc2c3ccccc3ccc2[n+]2ccccc12 is ____.
*A* > 33.7 µM

*Q* Also CC(=O)C1C(=O)C(=O)N(c2ccccc2N2C(=O)C(=O)C(C(C)=O)C2=O)C1=O (stereo not drawn) , if possible.
*A* > 100 µM

*Q* What do you have for Nc1nnc(N)n1NC(=O)C(=O)Nc1ccc([N+](=O)[O-])cc1 ?
*A* > 100 µM

*Q* Quick one: Nc1c(C(=O)c2cccc(CCC3(O)CCCC3)c2)cnn1-c1ccc(F)cc1
*A* > 25 µM

*Q* Another compound: O=C1[C@@H]2C3SC(c4ccccc43)[C@@H]2C(=O)N1c1ccccc1
*A* > 83 µM

Would you mind giving TGI for every compound in the list below?
1. C/C1=C\C/C=C(\C)[C@H]2CC(CC/C(C)=C/CC1)[C@@](C)(CO)O2
2. O=C1CSC(c2ccc(Cl)cc2)N1c1ccc(-c2ccc(-n3c(-c4ccccc4)nc4ccccc4c3=O)cc2)cc1 (stereo not drawn)

*A*
1: > 100 µM; 2: 26.6 µM

*Q* Would you mind telling me what TGI value was observed for CO[C@H]1C[C@@H]2CC[C@@H](C)[C@@](O)(O2)C(=O)C(=O)N2CCCC[C@H]2C(=O)O[C@H]([C@H](C)C[C@@H]2CC[C@@H](OP(C)(C)=O)[C@H](OC)C2)CC(=O)[C@H](C)/C=C(\C)[C@@H](O)[C@@H](OC)C(=O)[C@H](C)C[C@H](C)/C=C/C=C/C=C/1C ?
*A* 15.7 µM

---

# Tested on: SK-MEL-2 melanoma
# experimental details: NCI tumour cell line growth inhibition, 48 h; in the data active means GI50 below about 0.43 µM; inactive means the rest
The reply should be one of these categories: active, inactive

*Q* What was the test verdict on N#CSCc1c(Cl)cccc1Cl ?
*A* inactive

---

# Test system: SK-MEL-5 melanoma
# experimental details: NCI tumour cell line growth inhibition, 48 h; in the data active = GI50 below about 0.43 µM; inactive = the rest
Outcome field: choose from Yes for active, No for inactive

*Q* Identify the outcome logged in this assay for the compound shown: COc1ccc2c(c1)sc1nc(-c3ccccc3)c(-c3ccc(O)c(OC)c3)n12
*A* No

*Q* Moving on to COc1ccc(/C=C/C(=O)c2ccc3cc(OC)c(OC)cc3c2)cc1OC
*A* No

*Q* Try the compound CC1(C)CC(OCCCC[P+](c2ccccc2)(c2ccccc2)c2ccccc2)CC(C)(C)N1O
*A* Yes

*Q* Note, next up: CN1CCN(Cc2ccc(NC(=O)c3nc4ccc5[nH]ncc5c4c4c3CCC4)cc2C(F)(F)F)CC1
*A* No

*Q* One more compound: Nc1c(C(=O)c2cccc(C#CCN3CCOCC3)c2)cnn1-c1ccc(F)cc1
*A* No

*Q* And the next one, CNNC(=N\S(=O)(=O)c1cc(C(=O)Nc2ccc(Cl)cc2)c(Cl)cc1SCc1ccccc1)/N=C/c1ccc([N+](=O)[O-])s1 ?
*A* No

*Q* Request: CN(C)C(=O)c1cc2cnc(Nc3ccc(-c4csc5c(=O)cc(N6CCNCC6)oc45)cc3)nc2n1C1CCCC1
*A* No

*Q* And the next one, COc1cc2nc(N3CCCC3)nc(Nc3ccccc3)c2cc1OC ?
*A* No

*Q* Next up: ICCC(c1ccccc1)(c1ccccc1)c1ccccc1
*A* No

*Q* Check CCC[CH2][Sn]([CH2]CCC)([O]C(=O)c1cc(OC)c(OC)cc1OC)[O]C(=O)c1cc(OC)c(OC)cc1OC too.
*A* No

*Q* Field entry: COc1ccc(-c2cc(-c3cn[nH]c3-c3ccccn3)ccn2)cc1
*A* No

*Q* What about N#CSCc1c(Cl)cccc1Cl ?
*A* No

*Q* Now this one: C/C1=C\C/C=C(\C)[C@H]2CC(CC/C(C)=C/CC1)[C@@](C)(CO)O2
*A* No

Origin of measurements: PubChem BioAssay (NCI)
